Test system: HCT116 cells
Assay Summary: In vitro assay of inhibition of proliferation in whole cells (Test (b))
Type: cell-based
Measurement Context: Homo sapiens, HCT-116, 72 hours, MTS, read-out: IC50 Test (b) (In vitro assay for the inhibition of whole cell proliferation)
Property Measured: IC50 (nM)
Give bare numbers, in nM.

Smiles: COc1c(CN2CCC(c3ccc(C(=O)Nc4ccccc4N)cc3)CC2)c(C)nn1C
System: HCT116 cells
IC50 [nM]: 508

Next molecule, please.
(Q) For the molecule `Nc1ccccc1NC(=O)c1ccc(C2CCN(Cc3ccccn3)CC2)cc1` , give its reported IC50.
(A) 1430

* * *

System: recombinant human HDAC1 (Homo sapiens, UniProt Q13547)
Construct: FLAG (C)
Sequence (Q13547 whole entry): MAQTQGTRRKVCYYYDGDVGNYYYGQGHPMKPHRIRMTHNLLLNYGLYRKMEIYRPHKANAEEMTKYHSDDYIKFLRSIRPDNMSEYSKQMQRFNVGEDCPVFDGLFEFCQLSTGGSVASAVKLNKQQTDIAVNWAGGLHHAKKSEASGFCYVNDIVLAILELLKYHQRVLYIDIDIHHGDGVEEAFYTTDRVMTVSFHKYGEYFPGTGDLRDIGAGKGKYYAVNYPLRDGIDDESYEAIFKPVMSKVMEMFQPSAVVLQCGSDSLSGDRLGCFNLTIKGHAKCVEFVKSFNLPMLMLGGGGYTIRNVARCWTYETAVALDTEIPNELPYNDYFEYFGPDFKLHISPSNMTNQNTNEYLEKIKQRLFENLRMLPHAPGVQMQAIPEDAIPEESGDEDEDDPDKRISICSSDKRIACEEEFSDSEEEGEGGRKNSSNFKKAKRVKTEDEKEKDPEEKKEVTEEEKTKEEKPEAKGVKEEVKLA
Assay Summary: In vitro enzyme assay of recombinant HDAC1 (Test (a))
Measurement Context: recombinant human HDAC1, acetylated histone H4 peptide substrate; read-out: IC50 Test (a) (In vitro assay for the inhibition of HDAC1)
Property Measured: IC50 (nM)
Give bare numbers, in nM.

Smiles: Nc1ccccc1NC(=O)c1ccc(C2CCN(Cc3ccccn3)CC2)cc1
System: recombinant human HDAC1 (Homo sapiens, UniProt Q13547)
Readout Number: 100

// moving on: another record for IC50
(Q) Give reported IC50 value for `COc1c(CN2CCC(c3ccc(C(=O)Nc4ccccc4N)cc3)CC2)c(C)nn1C`
(A) 81

src = patent US8735429B2
